Molecular target: ALK5 (Homo sapiens, UniProt P36897, T204D)
Sequence (P36897 34-503 T204D, species assumed): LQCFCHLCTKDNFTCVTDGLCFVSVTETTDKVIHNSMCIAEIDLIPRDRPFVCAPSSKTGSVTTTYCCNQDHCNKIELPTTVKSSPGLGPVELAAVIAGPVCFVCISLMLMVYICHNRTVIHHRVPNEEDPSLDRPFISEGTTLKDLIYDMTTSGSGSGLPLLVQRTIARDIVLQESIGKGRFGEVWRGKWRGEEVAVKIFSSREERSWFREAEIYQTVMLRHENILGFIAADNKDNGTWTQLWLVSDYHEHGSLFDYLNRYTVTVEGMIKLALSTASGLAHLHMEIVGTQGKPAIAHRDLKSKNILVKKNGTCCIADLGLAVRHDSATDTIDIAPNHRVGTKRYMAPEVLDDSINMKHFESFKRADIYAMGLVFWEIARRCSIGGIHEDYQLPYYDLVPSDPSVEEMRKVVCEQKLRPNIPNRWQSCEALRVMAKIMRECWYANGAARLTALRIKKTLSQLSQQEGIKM
Experiment: biochemical
pIC50: −log10 of the molar value.
readout-type: pIC50

>  <smiles-representation>
Cc1cccc(-c2[nH]c(Cc3cccc(C(N)=O)c3)nc2-c2ccc3nccnc3c2)n1

>  <measured-target>
ALK5 (Homo sapiens, UniProt P36897, T204D)

>  <value-measured>
8.28

$$$$
